Catalogue of compounds with associated IC50
SYSTEM: Acetoacetyl-coenzyme A thiolase (Rattus norvegicus, UniProt Q5XI22)
Construct: prepared from the livers of Sprague Dawley rats treated in the diet for one week with 0.075% lovastatin to induce the enzyme; from tissue; host or cells: liver of lovastatin-treated Sprague Dawley rats
Sequence (Q5XI22 whole entry): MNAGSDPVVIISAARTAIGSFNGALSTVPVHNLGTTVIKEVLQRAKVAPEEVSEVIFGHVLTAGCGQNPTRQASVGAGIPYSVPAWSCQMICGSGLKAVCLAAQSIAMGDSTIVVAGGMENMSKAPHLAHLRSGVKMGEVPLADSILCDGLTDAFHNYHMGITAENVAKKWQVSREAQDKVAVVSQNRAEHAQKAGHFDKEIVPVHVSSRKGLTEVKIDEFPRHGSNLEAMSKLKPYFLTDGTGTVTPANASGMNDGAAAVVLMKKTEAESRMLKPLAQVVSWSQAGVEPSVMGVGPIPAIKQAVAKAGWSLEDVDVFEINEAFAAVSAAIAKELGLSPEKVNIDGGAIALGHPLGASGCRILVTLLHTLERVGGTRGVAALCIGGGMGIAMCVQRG
PROCEDURE_SUMMARY: Acetoacetyl-coenzyme A thiolase inhibition, coupled spectrophotometric assay (NADH oxidation at 340 nm)
Assay type: biochemical, Sprague Dawley rats
PROTOCOL_CONDITIONS: enzyme from rat liver (lovastatin-induced); pH 7.5; room temperature; 2.85 mM acetoacetyl-coenzyme A; read-out: IC₅₀
MEASUREMENT_TYPE: IC50

# COMPOUND, MEASUREMENT_TYPE, MEAS_VALUE
rows = [
    ("C#CC#CC#C[C@@H](O)[C@@H]1OC(=O)O[C@H]1CCCCCCC(=O)OC", "IC50", "24 nM"),
    ("C#CC#CC#C[C@@H](OC)[C@@H]1OC(=O)O[C@H]1CCCCCCC(=O)OC", "IC50", "46 nM"),
    ("C#CC#CC#C[C@@H](OC(C)=O)[C@@H]1OC(=O)O[C@H]1CCCCCCC(=O)O", "IC50", "9 nM"),
    ("C#CC#CC#C[C@@H](OC(C)=O)[C@@H]1OC(=O)O[C@H]1CCCCCCC(=O)OC", "IC50", "150 nM"),
]
